assay: A quantitative high throughput screen for small molecules that induce DNA re-replication in MCF 10a normal breast cells.; also: nearly all actives have a fitted effect of over 50% in size; conditions: MCF 10A DNA re-replication, Hoechst nuclear intensity, 48 h; series mostly up to 46.1 µM
The campaign covered roughly 350,000 compounds. About 9,900 (2.8%) were called active. Inconclusive results (about 15%) are left out. Calls follow the shape of the dose curve; as a rule, active = well fitted activation curve with a large enough effect; inconclusive = small, poorly fitted or top-dose-only effect; inactive = no such curve, though single readings can be large or run the other way. The sample holds actives, similar compounds and a random draw of the others, so the mix is not that of the screen.
API: response.call in class 1 (active), class 0 (inactive)

Cc1cccc(C(=O)NCCCN(C)CCCNC(=O)c2cccc(C)c2)c1: class 0
Cc1ccc(N=C2NC(=O)/C(=C/C=C/c3ccco3)S2)cc1C: class 1
CN(C)c1ccc(-n2cccc2/C=C2/SC(=Nc3ccc(F)cc3)NC2=O)cc1: class 0
C/C(=N\Nc1ccccc1)c1cccs1: class 0

### Prompt How was "C[C@H](NS(=O)(=O)c1ccc(Cl)cc1)C(=O)OCC(=O)N1CCOCC1" classified in this test?
### Response class 0

### Prompt // return assay outcome for "COc1ccc(/C=N/NC(=O)c2cccc(C(F)(F)F)c2)cc1"
### Response class 0
